Attribution: patent US20250042957A1

experimental.system: TargetA
experimental.details: SPR, bio-TargetA coated on NAD chip, DARPin 333.33-4.11 nM
assay.endpoint: Kd (pM)

{"binder": "2-in-1 DARPin 24 (SEQ ID NO: 93) (designed binder) DLGKKLLQAARAGQLDEVRELLKAGADVNAKDSQGRTPLHLAAFAGHLEIVEVLLKAGADVNAKDHAGWTPLHLAAYAGHLEIVEVLVKAGADVNAKDTEGKTPLHIAAWFGHLEIVEVLLKAGADVNAKDKSGKTPLHLAARAGHLEIVEVLLKAGADVNAKDNSGQTPLHEAAWAGHLEIVEVLLKAGADVNAKNSRGWTPLHTAAQTGHLEIFEVLLKAGADVNAKNDKRVTPLHLAAALGHLEIVEVLLKAGADVNARDSWGTTPADLAAKYGHQDIAEVLQKAA", "reported.value": 119}
